molecular target: T1, human IL4Rα expressed on 293F-IL4Rα cells (human, UniProt P24394 26-825); test: flow cytometry, blocks biotin-IL4 binding to 293F-IL4Rα cells
T1 construct: whole, on cells; also called cell surface human IL4Rα
measured property: IC50

| binder | measured property | value observed |
| --- | --- | --- |
| huB8G11F2B7G5E8-V14 (antibody, human IgG4 S228P, kappa, V domains shown, Humanized, human IgG4/kappa; also called huBSG11F2B7G5E8-V14) VH: EVQLVQSGAEVKKPGATVKISCKVSGFNIKDTYMHWVKQAPGKGLEWMGRIDPTNGYTIYASKFQGKATITADTSSNTAYMELSSLRSEDTAVYHCVSRRPWFAYWGQGTLVTVSS VL: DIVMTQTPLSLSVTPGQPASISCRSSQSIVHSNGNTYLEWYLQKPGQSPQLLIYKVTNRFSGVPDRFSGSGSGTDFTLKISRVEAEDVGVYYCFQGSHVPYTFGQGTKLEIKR | IC50 | 0.6 nM |
| chimeric antibody C2C1A1A1 (antibody, human IgG4 S228P, kappa, V domains shown, Mouse variable domains on human IgG4/kappa; also called Chimeric C2C1A1A1; chC2C1A1A1) VH: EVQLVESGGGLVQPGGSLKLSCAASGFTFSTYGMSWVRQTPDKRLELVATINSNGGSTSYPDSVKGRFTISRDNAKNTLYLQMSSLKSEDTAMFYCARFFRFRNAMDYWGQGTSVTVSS VL: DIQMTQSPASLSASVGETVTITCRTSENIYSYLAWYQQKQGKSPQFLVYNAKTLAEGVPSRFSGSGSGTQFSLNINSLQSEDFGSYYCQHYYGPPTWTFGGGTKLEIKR | IC50 | 0.48 nM |
| huB8G11F2B7G5E8-V4 (antibody, human IgG4 S228P, kappa, V domains shown, Humanized, human IgG4/kappa; also called huBSG11F2B7G5E8-V4) VH: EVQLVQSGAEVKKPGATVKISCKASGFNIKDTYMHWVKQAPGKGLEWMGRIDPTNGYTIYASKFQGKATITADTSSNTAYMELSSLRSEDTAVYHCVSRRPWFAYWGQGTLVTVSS VL: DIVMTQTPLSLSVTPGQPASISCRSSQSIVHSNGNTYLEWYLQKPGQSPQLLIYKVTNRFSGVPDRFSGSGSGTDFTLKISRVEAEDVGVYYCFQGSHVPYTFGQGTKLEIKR | IC50 | 0.51 nM |
| mouse antibody B8G11F2B7G5E8 (antibody, V domains shown, Mouse hybridoma mAb; also called Mouse B8G11F2B7G5E8; mAb B8G11F2B7G5E8) VH: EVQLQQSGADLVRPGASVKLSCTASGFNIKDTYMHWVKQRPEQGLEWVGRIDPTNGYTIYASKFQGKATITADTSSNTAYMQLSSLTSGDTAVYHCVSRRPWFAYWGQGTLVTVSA VL: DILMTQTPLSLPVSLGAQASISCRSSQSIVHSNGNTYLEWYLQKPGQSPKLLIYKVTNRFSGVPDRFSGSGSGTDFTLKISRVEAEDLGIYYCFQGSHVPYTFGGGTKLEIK | IC50 | 0.5 nM |
| huB8G11F2B7G5E8-V2 (antibody, human IgG4 S228P, kappa, V domains shown, Humanized, human IgG4/kappa; also called huBSG11F2B7G5E8-V2) VH: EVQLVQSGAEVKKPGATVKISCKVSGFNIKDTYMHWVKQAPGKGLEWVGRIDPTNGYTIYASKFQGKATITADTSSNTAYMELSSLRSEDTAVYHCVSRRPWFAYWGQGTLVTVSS VL: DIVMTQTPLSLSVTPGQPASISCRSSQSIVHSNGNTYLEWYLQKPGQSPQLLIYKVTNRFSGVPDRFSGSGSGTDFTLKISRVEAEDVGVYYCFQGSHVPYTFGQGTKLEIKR | IC50 | 0.54 nM |
| chimeric antibody B8G11F2B7G5E8 (antibody, human IgG4 S228P, kappa, V domains shown, Mouse variable domains on human IgG4/kappa; also called Chimeric B8G11F2B7G5E8; chB8G11F2B7G5E8) VH: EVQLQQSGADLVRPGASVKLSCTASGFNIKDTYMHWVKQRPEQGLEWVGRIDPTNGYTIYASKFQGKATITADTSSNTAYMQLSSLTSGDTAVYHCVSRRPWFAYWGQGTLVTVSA VL: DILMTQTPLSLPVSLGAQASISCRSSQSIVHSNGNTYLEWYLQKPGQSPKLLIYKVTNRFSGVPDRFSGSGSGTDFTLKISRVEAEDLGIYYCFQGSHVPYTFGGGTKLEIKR | IC50 | 0.36 nM |
